# Tested on: K-562 leukemia
# assay: NCI tumour cell line growth inhibition, 48 h
Readings of TGI for the listed molecules
Form entry: value (µM) — number only.

These solved cases illustrate the format of a correct answer.
>>> print(df.to_string())
                           structure_string     system_name  measured_endpoint  display_unit  observed_value
0       O=C(/C=C/c1ccco1)CC(=O)/C=C/c1ccco1  K-562 leukemia                TGI            µM            26.7
1  Cn1c(-c2ccc(/C=N\N3CCN(/N=C/c4ccc(-c5c[n+]6ccsc6n5C)cc4)CC3)cc2)c[n+]2ccsc12  K-562 leukemia                TGI            µM            34.7

**Q:** For ClC1=C(Cc2ccccc2)Cc2ccc3c(c21)CCC3 , what is its reported TGI?
**A:** 76

###

# Test system: OVCAR-3 ovarian
# assay: NCI tumour cell line growth inhibition, 48 h
measured endpoint: TGI

>>> df
                                   molecule  observed_value
0  CC(C)[C@](O)(C(=O)OCC1CC[N+]2([O-])CC[C@@H](O)C12)[C@H](C)O (stereo partly specified)        > 375 µM
1  Cc1cccc(-c2cc(=S)c3cc(N4CCCC4)ccc3[nH]2)c1        > 100 µM
2      CCOP(=O)(OCC)/C(C#N)=C/c1cccn1CC(C)C        > 100 µM

**Q:** Quick one: TGI of O=c1[nH]nc(Cc2ccc(Cl)cc2)n1/N=C\c1ccc(/C=N/n2c(Cc3ccc(Cl)cc3)n[nH]c2=O)cc1 ?
**A:** > 100 µM

**Q:** What value of measured TGI is listed for Nc1c(-c2ccc(Cl)cc2Cl)[n+]([O-])c2ccccc2[n+]1[O-] ?
**A:** > 100 µM

**Q:** Query: TGI; subject: O=c1cnn2c(n1)sc1ccc3ccccc3c12
**A:** > 100 µM

###

# Test system: ACHN renal
# assay: NCI tumour cell line growth inhibition, 48 h
measured endpoint: TGI

Some compounds with recorded TGI:
compound	TGI
CC(=O)O[C@H]1C(=O)[C@@]2(C)C(C(OC(=O)c3ccccc3)[C@]3(O)CC(OC(=O)C(O)C(NC(=O)c4ccc(C)cc4)c4ccccc4)C(C)=C1C3(C)C)[C@]1(OC(C)=O)CO[C@@H]1C[C@@H]2O (stereo partly drawn)	> 25 µM
CC(=O)N[C@H]1CCCC[C@@H]1OC(C)=O	> 100 µM
COC(=O)C1=C(CO)C2C=CC1C2 (stereo not drawn)	> 100 µM
Cc1ccc(S(=O)(=O)OC2C(C3COC(C)(C)O3)OC3OC(C)(C)OC32)cc1 (stereo not drawn)	> 100 µM

**Q:** Give its TGI value. Item: CCCCN1C(=O)NC(Cc2ccccc2)C1=O (stereo not drawn)
**A:** > 100 µM

**Q:** Which measured TGI value corresponds to CC(C)(C)C(=O)C1CC(=O)c2ccccc2C1=O (stereo not drawn) ?
**A:** > 100 µM

**Q:** Fill in: TGI of CC(NC(=O)OC(C)(C)C)C(=O)C(N)=O (stereo not drawn) is ___
**A:** > 100 µM

**Q:** Please report the recorded TGI for S=C(S)N1CCN(c2ccc(Cl)c(Cl)c2)CC1 .
**A:** > 100 µM

**Q:** Which TGI value belongs to CN(C)c1ccc(/C=C(\NC(=O)c2ccccc2)C(=O)NC(CCC(=O)O)C(=O)O)cc1 (stereo not drawn) ?
**A:** > 100 µM

**Q:** Would you mind telling me what TGI value was observed for O=c1ccn2n1CCCCC2 ?
**A:** > 100 µM

**Q:** Returns the measured TGI for the input compound. Input: COc1ccc2oc(C(=O)N3CC(CCl)c4ccc([N+](=O)[O-])cc43)cc2c1 (stereo not drawn)
**A:** > 100 µM

**Q:** Give its TGI value. Item: N/N=C1/CCCc2nonc21
**A:** > 100 µM

**Q:** Field request: TGI | item: COc1ccc(N2C(=O)C3c4[nH]c5cccc(C)c5c4C4CCC(C(C)(C)C)CC4C3C2=O)cc1 (stereo not drawn)
**A:** > 10 µM

###

# Test system: NCI-H460 lung
# assay: NCI tumour cell line growth inhibition, 48 h
measured endpoint: TGI

Example entries begin here.
>>> print(df.to_string())
                                   molecule  observed_value
0  CC(C)NC(=O)OCc1c(COC(=O)NC(C)C)n(C)c2c1ccc1ccccc12          7.7 µM
1  CCC(=C/[C@H](C)C/C=C/C(C)=C/[C@@H](C)C(=O)[C@@H](C)[C@H](O)[C@@H](C)CC)/C=C/[C@H]1OC(=O)C=C[C@H]1C          1.1 µM
2                Cc1ccccc1CN1CC=c2ccccc2=N1        > 100 µM
3  N#Cc1cc([N+](=O)[O-])ccc1NC(=O)C(=O)C(C(=O)/C=C/c1ccccc1)C1OC(=O)c2ccccc21 (stereo unspecified)        > 100 µM
4                        O=[N+]([O-])O.[Ga]         8990 µM

**Q:** Can you look up the measured TGI of COc1ccc(/C=C2\CCC(C)(CN(C)C)C2=O)cc1 (stereo unspecified) for me?
**A:** > 100 µM

**Q:** Entry OCCN(CCO)c1ccc2c(c1)Cc1ccccc1-2 has what TGI?
**A:** 50 µM

**Q:** What value of TGI has been reported for the following molecule? COc1ccc2c(c1)OC[C@@H]1c3cc4c(cc3O[C@H]21)OCO4
**A:** > 100 µM

**Q:** For the molecule shown here, CCOC(=O)CCC(NC(=O)c1ccc(Nc2nc3ccccc3nc2-c2cccs2)cc1)C(=O)OCC (stereo unspecified) , give the reported TGI.
**A:** > 100 µM

**Q:** # get_value(readout='TGI', item= COc1cc2c(c3c1c(=O)c1ccccc1n3C)C=CC1(CCCCC1)O2 )
**A:** > 10 µM

**Q:** What measured TGI goes with COc1cc(C(=O)c2cc3c(cc2C)OCO3)cc(OC)c1OC ?
**A:** > 33.2 µM

###

# Tested on: SNB-75 CNS
# assay: NCI tumour cell line growth inhibition, 48 h
Below is a list of entries, each paired with its recorded TGI value.

Please review the entries below; each comes with its answer.
compound	TGI
Cc1c2c(n(Cc3ccccn3)c1C)NN=C(C#N)S2(=O)=O	> 100 µM
Nc1c(-c2ccc(Cl)cc2Cl)[n+]([O-])c2ccccc2[n+]1[O-]	> 100 µM
CCOC(=O)NC(NC(C)CC)(C(F)(F)F)C(F)(F)F (centres undefined)	> 100 µM
NC1=NNC2(C(N)=N1)c1ccccc1-c1ccccc12	> 10 µM
O=C(/C=C/c1ccco1)CC(=O)/C=C/c1ccco1	> 31.6 µM
COC(=O)C(Cc1ccccc1)OC(=O)C(N)CC(=O)O (centres undefined)	> 100 µM
CN(C)CCCc1c[nH]c2ccccc12	> 100 µM
CC1CCC2C(C(=O)O[C@H]3C4CCO[C@@H](OC5OC(CO)C(O)C(O)C5O)C4[C@@]4(CO)O[C@@H]34)=CO[C@@H](OC3OC(CO)C(O)C(O)C3O)C12 (some centres undefined)	> 10 µM
CC(=O)Oc1ccccc1C(=O)O	> 100 µM
CCOC(=O)CCC(NC(=O)c1ccc(OCc2nc3ccccc3n3cccc23)cc1)C(=O)OCC (centres undefined)	> 100 µM

// moving on: another record for TGI
**Q:** Checklist item: TGI tested on SNB-75 CNS, entry Cc1cc(Cl)ccc1N=C1NC(=O)C(CC(=O)Nc2ccc(Cl)cc2Cl)S1 (centres undefined) , value?
**A:** > 100 µM

###

# System: SK-MEL-2 melanoma
# assay: NCI tumour cell line growth inhibition, 48 h
Listing of entries alongside the reported TGI.

As a guide, the following entries are already answered.
molecule	TGI
O=c1ccn2n1CCCCC2	> 100 µM
CC12CCC[C@@](C)(C(=O)OC3OC(CO)C(O)C(O)C3O)[C@H]1CCC13CC4CC(OC4(CO)[C@H]1O)[C@@H]23 (stereo not given in full)	> 100 µM

**Q:** Which TGI value is on record for O=C1C(=O)C(Br)(Br)C(Br)=C1Br ?
**A:** 33.7 µM

**Q:** TGI lookup needed for O=C(CCCl)NNC1=NCCN1 , thanks.
**A:** > 100 µM

**Q:** Which TGI reading was recorded for the molecule O=C(NC1=NC2C=CC([N+](=O)[O-])=CC2S1)C(=O)Nn1c(=S)[nH]c2ccccc2c1=O (stereo not given) ?
**A:** > 100 µM

**Q:** Requested field: TGI. Item: CCOC(=O)c1c(-c2ccc(OC)cc2)c(C#N)c(=S)n(C2OC(CO)C(O)C(O)C2O)c1-c1ccccc1 (stereo not given)
**A:** > 100 µM

**Q:** Could you share which TGI value was measured for Nc1ccc(/C=N/Nc2ccnc3c(N)cccc23)c2cccnc12 ?
**A:** 3.25 µM

**Q:** Need TGI, item N.N.NCCCCN.O=C([O-])C1(C(=O)[O-])CCC1.O=C([O-])C1(C(=O)[O-])CCC1.[Pt+4].[Pt+4]
**A:** > 100 µM

**Q:** Request the reported TGI associated with C[C@@H]1C=C2C(=O)O[C@@H]3CC[C@H](C1)[C@]23O
**A:** 11.4 µM

**Q:** // returns reported TGI for input CC(C)=CC(=O)Cc1nc2cc(C)c(C)cc2[nH]c1=O
**A:** > 100 µM

**Q:** Dear colleague, I am looking for the recorded TGI of the following molecule: COc1cc2c(c3c1c(=O)c1ccccc1n3C)C=CC1(CCCCC1)O2
**A:** 9.69 µM

**Q:** Look up TGI: OC1CN2CCS[C@H]2C(O)C1O (stereo not given in full)
**A:** > 100 µM

**Q:** Given O=C(/C=C/c1ccco1)CC(=O)/C=C/c1ccco1 , state its recorded TGI.
**A:** 22.2 µM

**Q:** Which TGI is listed for CC(C)(C)C(=O)C1CC(=O)c2ccccc2C1=O (stereo not given) ?
**A:** 33.1 µM

**Q:** I have this molecule here, O=c1[nH]nc(Cc2ccc(Cl)cc2)n1/N=C\c1ccc(/C=N/n2c(Cc3ccc(Cl)cc3)n[nH]c2=O)cc1 , and I need its recorded TGI.
**A:** > 100 µM

**Q:** Please give the measured TGI for this molecule: COc1ccccc1Cn1nc(OC)c2cc([N+](=O)[O-])ccc21
**A:** > 57.5 µM

**Q:** TGI lookup needed for CS(=O)(=O)Nc1ccc(Nc2c3ccccc3nc3ccccc23)cc1 , thanks.
**A:** 16.1 µM

**Q:** Reported TGI for Nc1c(-c2ccc(Cl)cc2Cl)[n+]([O-])c2ccccc2[n+]1[O-] : what is it?
**A:** > 100 µM

**Q:** # TGI lookup, item CC(C)(C)c1ccc(C(O)c2ccc(C(C)(C)C)cc2)cc1
**A:** 29.4 µM
